The reported measurements were obtained from patent US20210388087A1.

- target.under.test: T1, Human CD3eg linker (human)
- T1 construct: Single-chain construct; also called recombinant human CD3
- T1 chain: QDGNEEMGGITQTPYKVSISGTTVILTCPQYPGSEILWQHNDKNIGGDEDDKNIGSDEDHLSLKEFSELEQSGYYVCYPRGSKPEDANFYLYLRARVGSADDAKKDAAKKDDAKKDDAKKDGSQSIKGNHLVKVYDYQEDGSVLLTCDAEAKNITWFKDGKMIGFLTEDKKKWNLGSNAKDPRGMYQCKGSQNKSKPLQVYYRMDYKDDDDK
- assay.method.text: SPR; fold vs parent H183/L072
reported.endpoint: fold change of affinity (fold)
Report as a plain number; the unit fold is understood.

- binder: "H183/L072 VL Y32N (antibody, name in Kabat numbering, V domains shown) VH: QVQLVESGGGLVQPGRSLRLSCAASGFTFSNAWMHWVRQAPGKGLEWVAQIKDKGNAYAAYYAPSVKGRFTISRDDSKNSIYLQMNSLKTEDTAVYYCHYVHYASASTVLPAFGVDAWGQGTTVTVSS VL: DIVMTQSPLSLPVTPGEPASISCQASQELVHMNRNTNLHWYQQKPGQAPRLLIYKVSNRFPGVPDRFSGSGSGTDFTLKISRVEAEDVGVYYCAQGTSVPFTFGQGTKLEIK"
  measurement.units: "fold"
  test.value: 0

Let us examine a further case.
In one line, give reported fold change of affinity of the entry H183/L072 VL N30G (antibody, name in Kabat numbering, V domains shown) VH: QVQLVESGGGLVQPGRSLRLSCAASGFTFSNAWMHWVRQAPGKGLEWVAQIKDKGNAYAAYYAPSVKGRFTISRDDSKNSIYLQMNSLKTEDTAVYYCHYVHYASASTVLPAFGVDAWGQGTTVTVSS VL: DIVMTQSPLSLPVTPGEPASISCQASQELVHMNRGTYLHWYQQKPGQAPRLLIYKVSNRFPGVPDRFSGSGSGTDFTLKISRVEAEDVGVYYCAQGTSVPFTFGQGTKLEIK .
0
